# tgt: rat a7-nAChR (Rattus norvegicus, UniProt Q05941)
# Sequence (Q05941 23-502): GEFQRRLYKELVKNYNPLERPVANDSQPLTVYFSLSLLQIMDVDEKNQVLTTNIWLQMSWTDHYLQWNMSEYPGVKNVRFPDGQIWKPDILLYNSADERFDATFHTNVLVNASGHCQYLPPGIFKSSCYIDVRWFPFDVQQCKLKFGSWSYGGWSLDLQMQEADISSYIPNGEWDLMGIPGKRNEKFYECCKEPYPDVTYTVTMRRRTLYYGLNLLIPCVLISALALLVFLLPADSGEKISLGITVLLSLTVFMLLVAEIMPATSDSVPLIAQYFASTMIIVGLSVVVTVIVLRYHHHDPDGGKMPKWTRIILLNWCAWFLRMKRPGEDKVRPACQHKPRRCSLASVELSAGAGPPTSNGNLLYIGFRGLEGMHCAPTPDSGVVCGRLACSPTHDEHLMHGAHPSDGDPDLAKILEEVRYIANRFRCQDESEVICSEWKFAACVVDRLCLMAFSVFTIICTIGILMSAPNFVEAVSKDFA
pKi: −log10 of the molar value.

>  <sampleSmiles>
O=S1(=O)c2cc(N3CCN4CCC3CC4)ccc2-c2cccc(F)c21

>  <tgt>
rat a7-nAChR (Rattus norvegicus, UniProt Q05941)

>  <pKi>
9.52

$$$$

---

# tgt: Human 5-HT3 (Homo sapiens)
# Sequence (P46098 24-478): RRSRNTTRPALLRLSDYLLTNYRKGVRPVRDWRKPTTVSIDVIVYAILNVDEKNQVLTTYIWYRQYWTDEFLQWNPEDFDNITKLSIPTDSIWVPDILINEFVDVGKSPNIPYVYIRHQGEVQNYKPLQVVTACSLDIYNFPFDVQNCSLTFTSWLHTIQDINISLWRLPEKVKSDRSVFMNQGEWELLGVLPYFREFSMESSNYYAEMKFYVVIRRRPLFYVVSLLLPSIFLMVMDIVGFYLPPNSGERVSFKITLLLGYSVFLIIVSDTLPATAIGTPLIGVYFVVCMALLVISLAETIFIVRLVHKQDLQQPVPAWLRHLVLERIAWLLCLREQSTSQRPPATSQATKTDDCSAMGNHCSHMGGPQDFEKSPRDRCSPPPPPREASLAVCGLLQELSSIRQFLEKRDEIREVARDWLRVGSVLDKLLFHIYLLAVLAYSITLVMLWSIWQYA
# assay: 5-HT3(h) binding assay, recombinant HEK293 cells, [3H]GR65630
# conditionInfo: Human 5-HT3 recombinant/HEK293 cells, [3H]GR65630 (0.35 nM)
pKi: −log10 of the molar value.
parameterMeasured: pKi

>  <compound>
O=S1(=O)c2cc(N3CCN4CCC3CC4)ccc2-c2cccc(F)c21 [Compound 7a]

>  <parameterMeasured>
pKi

>  <endpointValue>
6.64

$$$$
>  <compound>
O=S1(=O)c2ccc(F)cc2-c2ccc(N3CCN4CCC3CC4)cc21 [Compound 7c]

>  <parameterMeasured>
pKi

>  <endpointValue>
6.30

$$$$

---

# tgt: α2β4-nAChR (Rattus norvegicus, UniProt P12389+P12392)
# Construct: expressed in transfected cells
# Sequence (P12389 28-511): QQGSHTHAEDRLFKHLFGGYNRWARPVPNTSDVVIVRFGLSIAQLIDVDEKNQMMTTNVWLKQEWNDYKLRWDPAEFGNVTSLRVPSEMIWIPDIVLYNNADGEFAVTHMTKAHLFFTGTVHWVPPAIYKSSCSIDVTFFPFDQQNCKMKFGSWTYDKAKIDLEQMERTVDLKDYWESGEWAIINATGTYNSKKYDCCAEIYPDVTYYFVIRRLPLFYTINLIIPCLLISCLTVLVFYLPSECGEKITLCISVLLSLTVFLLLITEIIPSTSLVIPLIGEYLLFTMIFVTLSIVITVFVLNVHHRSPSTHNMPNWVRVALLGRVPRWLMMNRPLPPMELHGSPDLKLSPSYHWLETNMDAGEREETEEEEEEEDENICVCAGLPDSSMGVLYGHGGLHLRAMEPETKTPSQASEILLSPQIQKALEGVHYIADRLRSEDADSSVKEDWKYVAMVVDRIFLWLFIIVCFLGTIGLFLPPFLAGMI
# Sequence (P12392 21-495): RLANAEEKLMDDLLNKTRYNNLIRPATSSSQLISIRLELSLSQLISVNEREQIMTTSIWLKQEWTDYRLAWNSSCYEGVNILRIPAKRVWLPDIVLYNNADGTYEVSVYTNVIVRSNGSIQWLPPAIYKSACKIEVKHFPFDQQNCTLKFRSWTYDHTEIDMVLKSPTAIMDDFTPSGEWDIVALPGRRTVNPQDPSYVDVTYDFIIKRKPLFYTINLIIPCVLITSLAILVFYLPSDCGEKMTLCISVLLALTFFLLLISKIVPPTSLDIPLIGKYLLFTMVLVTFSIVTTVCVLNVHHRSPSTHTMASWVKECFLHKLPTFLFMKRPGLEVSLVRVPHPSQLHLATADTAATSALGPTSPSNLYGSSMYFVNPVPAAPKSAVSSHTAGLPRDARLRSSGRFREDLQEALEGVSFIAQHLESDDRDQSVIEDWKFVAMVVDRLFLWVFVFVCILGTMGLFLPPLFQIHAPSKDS
# assay: Heteromeric nAChR binding assay, transfected HEK293 membranes, [3H]epibatidine
# conditionInfo: stably transfected HEK293 cells, [3H]epibatidine (0.5 nM)

>  <sampleSmiles>
O=S1(=O)c2cc(N3CCN4CCC3CC4)ccc2-c2cccc(F)c21

>  <Ki [µM]>
4

$$$$
>  <sampleSmiles>
O=S1(=O)c2ccccc2-c2c(N3CCN4CCC3CC4)ccc(F)c21

>  <Ki [µM]>
0.562

$$$$
>  <sampleSmiles>
O=S1(=O)c2ccc(F)cc2-c2ccc(N3CCN4CCC3CC4)cc21

>  <Ki [µM]>
8

$$$$

---

# tgt: α7-nAChR (Rattus norvegicus)
# Sequence (Q05941 23-502): as the sequence (Q05941 23-502) above
# assay: biochemical
# Format: binding
# conditionInfo: read-out: Ki α7-nAChR
pKi: −log10 of the molar value.

>  <compound>
O=S1(=O)c2ccc(F)cc2-c2ccc(N3CCN4CCC3CC4)cc21 [Compound 7c]

>  <tgt>
α7-nAChR (Rattus norvegicus)

>  <pKi>
8.88

$$$$
>  <compound>
O=S1(=O)c2cc(N3CCN4CCC3CC4)ccc2-c2cccc(I)c21 [Compound 14]

>  <tgt>
α7-nAChR (Rattus norvegicus)

>  <pKi>
9.03

$$$$
>  <compound>
O=[N+]([O-])c1cccc2c1S(=O)(=O)c1cc(N3CCN4CCC3CC4)ccc1-2 [Compound 10]

>  <tgt>
α7-nAChR (Rattus norvegicus)

>  <pKi>
9.47

$$$$

---

# tgt: α4β2-nAChR (Rattus norvegicus, UniProt P09483+P12390)
# Sequence (P09483 31-630): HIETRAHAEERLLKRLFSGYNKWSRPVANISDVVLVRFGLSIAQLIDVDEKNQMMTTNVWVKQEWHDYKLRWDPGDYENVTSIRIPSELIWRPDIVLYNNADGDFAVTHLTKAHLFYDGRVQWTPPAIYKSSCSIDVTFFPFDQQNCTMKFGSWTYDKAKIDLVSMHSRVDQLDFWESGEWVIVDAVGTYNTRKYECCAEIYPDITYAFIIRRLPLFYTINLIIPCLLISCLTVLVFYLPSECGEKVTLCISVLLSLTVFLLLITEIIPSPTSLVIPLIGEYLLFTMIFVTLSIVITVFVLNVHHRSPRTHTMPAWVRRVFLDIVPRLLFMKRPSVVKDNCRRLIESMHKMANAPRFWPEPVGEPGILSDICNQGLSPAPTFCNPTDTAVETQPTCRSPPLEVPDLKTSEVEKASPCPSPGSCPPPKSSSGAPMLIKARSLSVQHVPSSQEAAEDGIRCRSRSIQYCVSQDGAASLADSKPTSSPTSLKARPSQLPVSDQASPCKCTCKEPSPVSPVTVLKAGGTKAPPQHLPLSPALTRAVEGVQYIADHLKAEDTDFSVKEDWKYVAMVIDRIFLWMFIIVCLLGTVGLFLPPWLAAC
# Sequence (P12390 25-500): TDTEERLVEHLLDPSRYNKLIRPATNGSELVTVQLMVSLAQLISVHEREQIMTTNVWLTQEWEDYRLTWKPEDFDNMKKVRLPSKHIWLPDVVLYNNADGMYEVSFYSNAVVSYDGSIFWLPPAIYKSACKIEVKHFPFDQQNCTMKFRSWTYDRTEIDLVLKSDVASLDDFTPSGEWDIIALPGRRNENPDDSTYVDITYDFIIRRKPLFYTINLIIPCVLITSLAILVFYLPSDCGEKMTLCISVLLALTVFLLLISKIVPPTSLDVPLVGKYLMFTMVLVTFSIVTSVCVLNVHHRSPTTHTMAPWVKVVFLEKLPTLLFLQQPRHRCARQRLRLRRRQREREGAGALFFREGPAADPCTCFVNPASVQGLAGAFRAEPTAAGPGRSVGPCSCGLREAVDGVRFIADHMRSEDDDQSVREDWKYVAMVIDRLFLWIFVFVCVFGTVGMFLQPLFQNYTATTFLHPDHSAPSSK
# assay: Heteromeric nAChR binding assay, transfected HEK293 membranes, [3H]epibatidine
Recorded Ki values for a group of compounds are listed next.

>  <sampleSmiles>
O=S1(=O)c2ccccc2-c2ccc(N3CCN4CCC3CC4)c(F)c21

>  <readoutUnits>
µM

>  <Ki>
0.141

$$$$
>  <sampleSmiles>
O=S1(=O)c2ccc(I)cc2-c2ccc(N3CCN4CCC3CC4)cc21

>  <readoutUnits>
µM

>  <Ki>
0.477

$$$$

---

# tgt: α2β4-nAChR (Rattus norvegicus, UniProt P12389+P12392)
# Construct: expressed in transfected cells
# assay: Heteromeric nAChR binding assay, transfected HEK293 membranes, [3H]epibatidine
pKi: −log10 of the molar value.
List of pKi values.

>  <sampleSmiles>
O=S1(=O)c2ccc(I)cc2-c2ccc(N3CCN4CCC3CC4)cc21

>  <tgt>
α2β4-nAChR (Rattus norvegicus, UniProt P12389+P12392)

>  <pKi>
5.22

$$$$
>  <sampleSmiles>
O=S1(=O)c2ccccc2-c2ccc(N3CCN4CCC3CC4)c(F)c21

>  <tgt>
α2β4-nAChR (Rattus norvegicus, UniProt P12389+P12392)

>  <pKi>
6.08

$$$$

---

# tgt: α7-nAChR (Rattus norvegicus)
# assay: biochemical
# Type: binding
# conditionInfo: Ki α7-nAChR
Catalogue of Ki readings, one per entry.

>  <sampleSmiles>
O=[N+]([O-])c1cccc2c1S(=O)(=O)c1cc(N3CCN4CCC3CC4)ccc1-2

>  <Ki [pM]>
350

$$$$
>  <sampleSmiles>
O=S1(=O)c2ccc(F)cc2-c2ccc(N3CCN4CCC3CC4)cc21

>  <Ki [pM]>
1350

$$$$

---

# tgt: α4β2-nAChR (Rattus norvegicus, UniProt P09483+P12390)
# assay: Heteromeric nAChR binding assay, transfected HEK293 membranes, [3H]epibatidine
# conditionInfo: stably transfected HEK293 cells, [3H]epibatidine (0.5 nM)
Each entry below lists one item and its recorded Ki value.

>  <sampleSmiles>
O=S1(=O)c2ccccc2-c2c(N3CCN4CCC3CC4)ccc(F)c21

>  <Ki / µM>
4

$$$$
>  <sampleSmiles>
O=S1(=O)c2ccc(F)cc2-c2ccc(N3CCN4CCC3CC4)cc21

>  <Ki / µM>
0.885

$$$$
>  <sampleSmiles>
O=S1(=O)c2cc(N3CCN4CCC3CC4)ccc2-c2cccc(F)c21

>  <Ki / µM>
0.562

$$$$

---

# tgt: α3β4-nAChR (Rattus norvegicus, UniProt P04757+P12392)
# Construct: expressed in transfected cells
# Sequence (P04757 26-499, one chain of several): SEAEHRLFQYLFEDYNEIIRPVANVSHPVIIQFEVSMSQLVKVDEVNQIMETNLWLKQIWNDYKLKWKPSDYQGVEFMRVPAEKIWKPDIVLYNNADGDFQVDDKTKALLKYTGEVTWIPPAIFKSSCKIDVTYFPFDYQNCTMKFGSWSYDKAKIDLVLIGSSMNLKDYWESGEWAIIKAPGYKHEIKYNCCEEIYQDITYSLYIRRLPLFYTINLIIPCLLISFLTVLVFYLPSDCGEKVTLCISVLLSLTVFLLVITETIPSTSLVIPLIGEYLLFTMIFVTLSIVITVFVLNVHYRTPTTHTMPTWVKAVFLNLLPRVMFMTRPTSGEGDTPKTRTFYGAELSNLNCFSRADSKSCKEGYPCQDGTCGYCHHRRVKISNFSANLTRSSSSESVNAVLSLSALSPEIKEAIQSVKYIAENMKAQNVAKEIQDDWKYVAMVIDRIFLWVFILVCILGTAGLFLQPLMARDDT
# assay: Heteromeric nAChR binding assay, transfected HEK293 membranes, [3H]epibatidine
# conditionInfo: stably transfected HEK293 cells, [3H]epibatidine (0.5 nM)
pKi: −log10 of the molar value.

>  <sampleSmiles>
O=S1(=O)c2ccccc2-c2c(N3CCN4CCC3CC4)ccc(F)c21

>  <pKi>
6.58

$$$$
>  <sampleSmiles>
O=S1(=O)c2ccc(F)cc2-c2ccc(N3CCN4CCC3CC4)cc21

>  <pKi>
5.30

$$$$
>  <sampleSmiles>
O=S1(=O)c2cc(N3CCN4CCC3CC4)ccc2-c2cccc(F)c21

>  <pKi>
6.15

$$$$

---

# tgt: α2β2-nAChR (Rattus norvegicus, UniProt P12389+P12390)
# assay: Heteromeric nAChR binding assay, transfected HEK293 membranes, [3H]epibatidine
# conditionInfo: stably transfected HEK293 cells, [3H]epibatidine (0.5 nM)

>  <sampleSmiles>
O=S1(=O)c2ccc(F)cc2-c2ccc(N3CCN4CCC3CC4)cc21

>  <Ki>
1 µM

$$$$
>  <sampleSmiles>
O=S1(=O)c2cc(N3CCN4CCC3CC4)ccc2-c2cccc(F)c21

>  <Ki>
> 10 µM

$$$$
